All values here come from paper PMC5308787.

- Tested on: LoVo/DX (colon cancer drug resistant)
- assay.details: Antiproliferative SRB assay, 72 h exposure
- Assay type: cell-based, human
- test.settings: Homo sapiens, LoVo/DX, mean ± SD of 3–5 experiments, n.a. = no activity in concentration of 5, 25, 125, 625 μM
pIC50: −log10 of the molar value.
assay.endpoint: pIC50

Here are 3 molecules together with their reported answers.
C=CC(C)(CC/C=C(\C)CCC=C(C)C)CC(=O)OC[C@H](COP(=O)([O-])OCC[N+](C)(C)C)OC(=O)CCCCCCCCCCCCCCC (some centres unmarked)    3.27
C=CC(C)(CCC=C(C)C)CC(=O)OC[C@H](COP(=O)([O-])OCC[N+](C)(C)C)OC(=O)CCCCCCCCCCCCCCC (some centres unmarked)    4.28
C=CC(C)(CCC=C(C)C)CC(=O)O (centres unmarked)    3.55

[P] C=CC(C)(CCC=C(C)C)CC(=O)OC[C@H](COP(=O)([O-])OCC[N+](C)(C)C)OC(=O)CC(C)(C=C)CCC=C(C)C (some centres unmarked)
[Q] C=CC(C)(CCC=C(C)C)CC(=O)O[C@H](COC(=O)CCCCCCCCCCCCCCC)COP(=O)([O-])OCC[N+](C)(C)C (some centres unmarked)
Incoming: Lower value of pIC50 belongs to which: P or Q ? Give the label of your selection.
Outgoing: P
(P: 3.61, Q: 3.81)
